# reported EC50; entries follow
# Assayed system: Androgen receptor (Homo sapiens, UniProt P10275)
# Sequence (P10275 whole entry): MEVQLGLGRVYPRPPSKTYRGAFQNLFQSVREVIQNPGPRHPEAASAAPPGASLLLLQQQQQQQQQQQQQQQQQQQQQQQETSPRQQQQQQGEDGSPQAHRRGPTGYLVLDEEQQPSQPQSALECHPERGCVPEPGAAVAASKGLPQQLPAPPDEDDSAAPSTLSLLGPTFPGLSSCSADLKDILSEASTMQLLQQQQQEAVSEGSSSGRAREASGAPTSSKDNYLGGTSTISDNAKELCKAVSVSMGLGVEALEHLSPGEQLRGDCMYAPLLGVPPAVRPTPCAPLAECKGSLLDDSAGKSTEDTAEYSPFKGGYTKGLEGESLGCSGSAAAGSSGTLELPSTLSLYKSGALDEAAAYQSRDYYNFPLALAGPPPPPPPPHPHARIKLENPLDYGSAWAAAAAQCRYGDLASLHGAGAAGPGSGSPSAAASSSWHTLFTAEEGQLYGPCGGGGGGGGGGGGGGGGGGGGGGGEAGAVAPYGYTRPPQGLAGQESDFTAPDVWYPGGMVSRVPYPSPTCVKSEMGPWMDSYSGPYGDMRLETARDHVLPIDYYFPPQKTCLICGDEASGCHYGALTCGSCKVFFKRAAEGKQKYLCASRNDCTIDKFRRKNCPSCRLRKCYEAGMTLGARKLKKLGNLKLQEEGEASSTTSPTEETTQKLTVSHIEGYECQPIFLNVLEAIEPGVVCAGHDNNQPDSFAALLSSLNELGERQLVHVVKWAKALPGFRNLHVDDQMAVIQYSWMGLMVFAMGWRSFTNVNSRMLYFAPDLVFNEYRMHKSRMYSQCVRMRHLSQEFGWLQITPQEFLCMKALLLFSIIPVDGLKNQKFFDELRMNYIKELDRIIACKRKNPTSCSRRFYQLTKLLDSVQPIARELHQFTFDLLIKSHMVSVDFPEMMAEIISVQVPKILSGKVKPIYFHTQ
# Method description: Agonist activity at androgen receptor (unknown origin) expressed in HeLa cells co-expressing PSA-(ARE)4-Luc13 assessed as induction of DHT-induced luciferase activity after […] by luciferase reporter gene assay
Please give a number only; it is taken to be in nM.

> print(dat)
                         compound.structure                            assayed.system  measurement.type  units  value.measured
1  COc1ccc2c(c1)c(C)c(CCC(=O)O)n2C(=O)c1ccc(Cl)cc1  Androgen receptor (Homo sapiens, UniProt P10275)              EC50     nM            0.15
2  COc1ccc2c(c1)c(C)c(CCC(=O)NS(C)(=O)=O)n2C(=O)c1ccc(Cl)cc1  Androgen receptor (Homo sapiens, UniProt P10275)              EC50     nM            0.14
3  COc1ccc2c(c1)c(CC(=O)NS(=O)(=O)C(F)(F)F)cn2C(=O)c1ccc(Cl)cc1  Androgen receptor (Homo sapiens, UniProt P10275)              EC50     nM             0.1

Please examine the following record next.
"COc1ccc2c(c1)c(CC(=O)O)c(C)n2C(=O)c1ccc(Cl)cc1" has a reported EC50 of 0.14
